Below, each of the compounds is paired with its reported pIC50 value.
System: NCI-H526 cell line
Test: Cell viability assay for H526 cell (EZ-Cytox)
Format: cell-based
Details: Homo sapiens, NCI-H526, 120 h; H526 cells, 5 days, 3000 nM to 0.46 nM
pIC50: −log10 of the molar value.

| compound | pIC50 |
| --- | --- |
| COc1cc(C(=O)NC2CCN(C[C@H]3CCN(c4ccc5c(c4)C(=O)N(C4CCC(=O)NC4=O)C5=O)C3)CC2)ccc1Nc1ncc2c(n1)N(C1CCCC1)CC(F)(F)C(=O)N2C (stereo partly drawn) | > 7.30 |
| COc1cc(C(=O)NN2CCC(N3CC4(CCN(c5cc6c(cc5F)C(=O)N(C5CCC(=O)NC5=O)C6=O)CC4)C3)CC2)ccc1Nc1ncc2c(n1)N(C(C)C)CC(F)(F)C(=O)N2C (stereo not drawn) | > 6.70 |
| COc1cc(C(=O)NC2CC(N(C)CCC3CCN(c4cccc5c4C(=O)N(C4CCC(=O)NC4=O)C5=O)CC3)C2)ccc1Nc1ncc2c(n1)N(C1CCCC1)CC(F)(F)C(=O)N2C (stereo not drawn) | > 7.00 |
| COc1cc(C(=O)NC2CCN(CC3CN(c4ccc5c(c4)C(=O)N(C4CCC(=O)NC4=O)C5=O)C3)CC2)ccc1Nc1ncc2c(n1)N(C1CCCC1)CC(F)(F)C(=O)N2C (stereo not drawn) | > 7.52 |
| COc1cc(C(=O)N[C@H]2CC[C@H](N(C)CCCOc3cccc4c3C(=O)N(C3CCC(=O)NC3=O)C4=O)CC2)ccc1Nc1ncc2c(n1)N(C1CCCC1)CC(F)(F)C(=O)N2C (stereo partly drawn) | > 7.30 |
| COc1cc(C(=O)NC2CC3(CCN(CC4CCN(c5cccc6c5C(=O)N(C5CCC(=O)NC5=O)C6=O)CC4)CC3)C2)ccc1Nc1ncc2c(n1)N(C1CCCC1)CC(F)(F)C(=O)N2C (stereo not drawn) | > 7.52 |
| COc1cc(C(=O)N2CCN(CCN3CCN(c4cccc5c4C(=O)N(C4CCC(=O)NC4=O)C5=O)CC3)CC2)ccc1Nc1ncc2c(n1)N(C1CCCC1)CC(F)(F)C(=O)N2C (stereo not drawn) | > 6.40 |
| COc1cc(C(=O)N[C@H]2CCN(C(=O)COc3cccc4c3C(=O)N(C3CCC(=O)NC3=O)C4=O)C2)ccc1Nc1ncc2c(n1)N(C1CCCC1)CC(F)(F)C(=O)N2C (stereo partly drawn) | > 6.70 |
| COc1cc(C(=O)N2CCN(CCCN3CCN(c4ccc5c(c4)C(=O)N(C4CCC(=O)NC4=O)C5=O)CC3)CC2)ccc1Nc1ncc2c(n1)N(C1CCCC1)CC(F)(F)C(=O)N2C (stereo not drawn) | > 6.40 |

Provenance of the data: patent US20250114460A1
